The measured values listed here are drawn from PubChem BioAssay (NCI).

system: OVCAR-3 ovarian; assay: NCI tumour cell line growth inhibition, 48 h
OBSERVATION TYPE: TGI

Solved entries:
COMPOUND	ASSAY VALUE
COc1ccc(/C=C2/C(=O)N(/C=C3\C(=O)Oc4ccccc4C3=O)C(=NC(C)=O)N2C)cc1OC	> 41.7 µM
COc1cc2c3c(n(CCCN=[N+]=[N-])c(=O)c2cc1OC)-c1ccc(NC(C)=O)cc1C3=O	> 50 µM
Cc1ccc(C2SCc3nc4ccccc4n32)cc1 (centres undefined)	> 100 µM

Next item in the queue.
Fill in: TGI of Fc1c(F)c(F)c(CSc2nc3ccccc3[nH]2)c(F)c1F is ___
> 100 µM
